# Measurement Protocol: growth inhibitors of H69AR lung tumor, primary screen, human, duplicate replicates (AID 580)
# Recorded Conditions: H69AR lung tumor cells viability, ATP luminescence, 72 h; at 10 µM
Activity calls are given as the source filed them.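 Rule for the calls: active = viability at or under a set limit in both replicates, limit being median viability minus 3 SD (cut at about 48% in these data, passing the limit was not always enough); inconclusive = at or under the limit in just one replicate; inactive = at or above the limit in both replicates.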
Outcome codes: active, inactive

{"Compound": "Cc1cc2c(cc(C(=O)OCC(=O)NCc3cccs3)n2C(C)C)o1", "Discrete Label": "active"}
{"Compound": "CO/C([O-])=N/c1c[n+](-c2ccc(C)cc2)no1", "Discrete Label": "inactive"}
{"Compound": "Cc1csc(NC(=O)c2ccoc2C)n1", "Discrete Label": "inactive"}
{"Compound": "COc1ccc(C(O)C(CN2CCOCC2)c2ccccc2)cc1F (stereo not given)", "Discrete Label": "inactive"}
{"Compound": "Cc1ccc(S(=O)(=O)N2CCN(C(=O)CSc3nnnn3C)C2)cc1", "Discrete Label": "inactive"}
{"Compound": "O=C(CN(c1ccccc1)S(=O)(=O)c1ccccc1)N1CCN(Cc2ccc3c(c2)OCO3)CC1", "Discrete Label": "inactive"}
{"Compound": "CCOc1ccc(N(C)S(=O)(=O)c2ccc3[nH]cc(C(=O)NCC4CCCO4)c(=O)c3c2)cc1 (stereo not given)", "Discrete Label": "inactive"}
{"Compound": "Cc1cc(Cl)ccc1NC(=O)CSc1nnc(Cc2cccs2)n1Cc1ccco1", "Discrete Label": "inactive"}
{"Compound": "CN(C)c1nc(N)nc(CSc2nnnn2-c2cccc3ccccc23)n1", "Discrete Label": "inactive"}
{"Compound": "C#CCN1C(=O)C(O)(CC(=O)c2cc(OC)ccc2OC)c2ccccc21 (stereo not given)", "Discrete Label": "active"}
{"Compound": "Cc1ccccc1OCCn1c(=O)oc2ccccc21", "Discrete Label": "inactive"}
{"Compound": "CN(c1ccccc1C(=O)N1CCN(c2cccc(Cl)c2)CC1)S(C)(=O)=O", "Discrete Label": "inactive"}
{"Compound": "CC(=O)Nc1nnc(S(N)(=O)=O)s1", "Discrete Label": "inactive"}
{"Compound": "Cc1nc(SCC(=O)c2c[nH]c3ccccc23)n[nH]1", "Discrete Label": "inactive"}
{"Compound": "CCc1cc(-c2[nH]ncc2-c2ccc3c(c2)OCO3)c(O)cc1O", "Discrete Label": "active"}
{"Compound": "O=C1NC(=O)C(c2ccccc2)(c2ccccc2)N1", "Discrete Label": "inactive"}
{"Compound": "CCN(C(=O)CN1CCN(c2ccccc2OC)CC1)c1c(N)n(Cc2ccccc2)c(=O)[nH]c1=O", "Discrete Label": "inactive"}
{"Compound": "Cc1cc(C)nc(NC2=NCC(=O)N2c2ccc(Cl)cc2)n1", "Discrete Label": "inactive"}
{"Compound": "COc1cccc(N2CCN(Cc3nc(N)nc(Nc4ccccc4)n3)CC2)c1", "Discrete Label": "inactive"}
{"Compound": "CC1=C(C)C(=O)C(CCCCC#CCCCC#CCO)=C(C)C1=O", "Discrete Label": "inactive"}
{"Compound": "O=C(COc1ccccc1)Nc1ccccc1N1CCN(c2ccccc2)CC1", "Discrete Label": "inactive"}
{"Compound": "Cc1ccc(N2CCN(c3ccc(C)cc3)C(CC(=O)O)C2=O)cc1 (stereo not given)", "Discrete Label": "inactive"}
{"Compound": "NNC(=O)c1ccncc1", "Discrete Label": "inactive"}
{"Compound": "CC1(C)NC(=O)N(CC(O)CN2CCCCC2)C1=O (stereo not given)", "Discrete Label": "inactive"}
{"Compound": "CCOC(=O)Nc1nnc(-c2ccccc2OC)s1", "Discrete Label": "inactive"}
{"Compound": "c1ccc(-c2ccc(-c3ccccn3)nn2)nc1", "Discrete Label": "inactive"}
{"Compound": "COc1cc2c3c(c1)/C(=C1/SC(NC(C)=O)=NC1=O)C(=O)N3C(C)(C)C=C2C", "Discrete Label": "inactive"}
{"Compound": "CCOc1ccccc1C1CC(=O)Nc2cc3c(cc21)OCO3 (stereo not given)", "Discrete Label": "active"}
{"Compound": "CCOc1cc(C2/C(=C(/O)c3ccc(OC(C)C)cc3)C(=O)C(=O)N2CCCOC)ccc1O (stereo not given)", "Discrete Label": "inactive"}
{"Compound": "O=c1[nH]c(Nc2ccccc2)cc2ccccc12", "Discrete Label": "inactive"}
{"Compound": "CCOc1cc(C(=O)Nc2c3c(nn2C(C)(C)C)CS(=O)C3)cc(OCC)c1OCC (stereo not given)", "Discrete Label": "inactive"}
{"Compound": "NC(=O)C1(N2CCCCC2)CCN(C(=O)Nc2ccccc2C(F)(F)F)CC1", "Discrete Label": "inactive"}
{"Compound": "Cc1cc(C)n(C(=O)C23CC4CC(CC(C4)C2)C3)n1", "Discrete Label": "inactive"}
{"Compound": "O=c1c(O)c(-c2ccc(O)cc2O)oc2cc(O)cc(O)c12", "Discrete Label": "inactive"}
{"Compound": "CCS(=O)(=O)c1ccc(S(=O)(=O)CC)s1", "Discrete Label": "inactive"}
{"Compound": "Cc1cnc(C(=O)Nc2ccccc2-n2cccc2)cn1", "Discrete Label": "inactive"}
{"Compound": "Cc1occc1C(=O)Nc1ccc(S(=O)(=O)N2CCN(C)CC2)cc1", "Discrete Label": "inactive"}
{"Compound": "Cc1cc(=O)[nH]c(SCC(=O)NCc2ccco2)n1", "Discrete Label": "inactive"}
{"Compound": "Cc1c(C(=O)N2CCN(c3ccccc3)CC2)sc2ncnc(N3CCN(c4ccccc4)CC3)c12", "Discrete Label": "inactive"}
{"Compound": "CCC1CCCCN1CCCNC(=O)c1ccc(CS(=O)(=O)Cc2ccccc2F)o1 (stereo not given)", "Discrete Label": "inactive"}
